# Target under test: Wee1 (h) (Homo sapiens)
# Assay name: Wee1 kinase (h) detection method, [γ-33P]-ATP filter assay
# Format: biochemical
# Condition context: C 0.1 μm compound
Some compounds, each annotated with its measured Inh. (%) of Wee1 kinase enzyme activity.
Note: unit % is implicit; provide only the numeric part.

[[record]]
compound = "CC(C)N1[C@H](C)CN(c2ccc(Nc3ncc4c(n3)N3CCN=C3N(c3c(Cl)cccc3Cl)C4=O)cc2)C[C@@H]1C [Example 65]"
quantitative_readout = 68

[[record]]
compound = "CN1CCN(c2ccc(Nc3ncc4c(n3)N3CCN=C3N(c3c(F)cccc3Cl)C4=O)cn2)CC1 [Example 57]"
quantitative_readout = 80

[[record]]
compound = "Cc1cc(Nc2ncc3c(n2)N2CCN=C2N(c2c(F)cccc2Cl)C3=O)ccc1N1CCN(C)CC1 [Example 50]"
quantitative_readout = 95


Could you now consider this next compound?
Indicate its recorded Inh. (%) of Wee1 kinase enzyme activity; the compound in question is Cc1cc(Nc2ncc3c(n2)N2CCN=C2N(c2c(F)cccc2Cl)C3=O)ccc1N1C[C@@H](C)N(C(C)C)[C@@H](C)C1 [Example 53]
82

====

# Inh. (%) of Wee1 kinase enzyme activity listing for each entry below
# Target under test: Wee1 (h) (Homo sapiens)
# Assay name: Wee1 kinase (h) detection method, [γ-33P]-ATP filter assay
# Format: biochemical
# Condition context: C 0.01 μm compound
Numeric answer plus unit only.

Consider the following illustrative entries.
[[record]]
structure_notation = "CN1Cc2cc(Nc3ncc4c(n3)N3CCN=C3N(c3c(F)cccc3Cl)C4=O)ccc2C(C)(C)C1"
result = "28%"

[[record]]
structure_notation = "Cc1cccc(Cl)c1N1C(=O)c2cnc(Nc3ccc(N4CCN(C)CC4)c(Cl)c3)nc2N2CCN=C21"
result = "16%"

[[record]]
structure_notation = "Cc1cc(Nc2ncc3c(n2)N2CCN=C2N(c2c(Cl)cccc2Br)C3=O)ccc1N1CCN(C)CC1"
result = "25%"

[[record]]
structure_notation = "CN1CCN(c2ccc(Nc3ncc4c(n3)N3CCN=C3N(c3c(F)cccc3Cl)C4=O)cc2C(F)(F)F)CC1"
result = "29%"


Using Wee1 (h) (Homo sapiens) as the test system, report measured Inh. (%) of Wee1 kinase enzyme activity of `C[C@@H]1CN(c2ccc(Nc3ncc4c(n3)N3CCN=C3N(c3c(Cl)cccc3Cl)C4=O)cc2C(F)(F)F)C[C@H](C)N1C` .
15%

Given `Cc1cccc(C)c1N1C(=O)c2cnc(Nc3ccc4c(c3)CN(C)CC4(C)C)nc2N2CCN=C21` , report its Inh. (%) of Wee1 kinase enzyme activity on Wee1 (h) (Homo sapiens).
15%

====

# Target under test: Wee1 (h) (Homo sapiens, UniProt P30291)
# Sequence (P30291 whole entry): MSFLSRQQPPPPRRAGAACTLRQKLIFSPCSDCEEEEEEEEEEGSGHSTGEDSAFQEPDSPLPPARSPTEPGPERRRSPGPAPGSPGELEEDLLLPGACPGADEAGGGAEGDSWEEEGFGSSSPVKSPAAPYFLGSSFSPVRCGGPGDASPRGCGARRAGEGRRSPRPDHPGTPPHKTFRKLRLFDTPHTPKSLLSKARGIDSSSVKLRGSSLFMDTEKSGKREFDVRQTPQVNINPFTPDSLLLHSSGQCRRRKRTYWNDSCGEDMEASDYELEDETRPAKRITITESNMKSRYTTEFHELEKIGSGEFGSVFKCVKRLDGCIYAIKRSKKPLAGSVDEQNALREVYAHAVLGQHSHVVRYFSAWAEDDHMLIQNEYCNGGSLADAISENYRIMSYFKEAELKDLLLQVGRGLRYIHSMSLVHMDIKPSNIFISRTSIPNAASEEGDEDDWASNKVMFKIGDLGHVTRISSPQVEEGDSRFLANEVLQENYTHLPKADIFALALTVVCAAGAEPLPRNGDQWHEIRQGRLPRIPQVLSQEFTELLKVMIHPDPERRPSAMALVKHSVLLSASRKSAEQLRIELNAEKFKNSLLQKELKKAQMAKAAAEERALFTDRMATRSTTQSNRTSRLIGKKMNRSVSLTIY
# Assay name: Wee1 kinase (h) detection method, [γ-33P]-ATP filter assay
# Type: biochemical
# Condition context: C 0.01 μm compound
Measurement kind: Inh. (%) of Wee1 kinase enzyme activity
# output: number + unit

Worked examples, 3 molecules total:
[[record]]
molecule = "CN1CCN(c2ccc(Nc3ncc4c(n3)N3CCN=C3N(c3c(F)cccc3Cl)C4=O)cc2F)CC1 [Example 44]"
measurement_kind = "Inh. (%) of Wee1 kinase enzyme activity"
result = "23%"

[[record]]
molecule = "CN1CCc2ccc(Nc3ncc4c(n3)N3CCN=C3N(c3c(Cl)cccc3Cl)C4=O)cc2C1 [Example 12]"
measurement_kind = "Inh. (%) of Wee1 kinase enzyme activity"
result = "32%"

[[record]]
molecule = "Cc1cc(Nc2ncc3c(n2)N2CCN=C2N(c2c(Cl)cccc2Cl)C3=O)cc(Cl)c1N1CCN(C)CC1 [Example 151]"
measurement_kind = "Inh. (%) of Wee1 kinase enzyme activity"
result = "42%"


Write down Inh. (%) of Wee1 kinase enzyme activity measured for item Cc1cc(Nc2ncc3c(n2)N2CCN=C2N(c2c(C)cccc2Cl)C3=O)cc(Cl)c1N1CCN(C)CC1 [Example 173]
26%

====

# Target under test: Wee1 (h) (Homo sapiens)
# Assay name: Wee1 kinase (h) detection method, [γ-33P]-ATP filter assay
# Type: biochemical
# Condition context: C 0.01 μm compound
Measurement kind: Inh. (%) of Wee1 kinase enzyme activity
Field: numeric (%). Do not append units.

The following compounds have reported results that may help.
[[record]]
compound = "COc1cc(Nc2ncc3c(n2)N2CCN=C2N(c2c(Cl)cccc2Cl)C3=O)cc(Cl)c1N1CCC(N(C)C)CC1 [Example 144]"
quantitative_readout = 19

[[record]]
compound = "C[C@@H]1CN(c2c(Cl)cc(Nc3ncc4c(n3)N3CCN=C3N(c3c(Cl)cccc3Cl)C4=O)cc2Cl)C[C@H](C)N1C [Example 136]"
quantitative_readout = 36

[[record]]
compound = "CN(C)CCOc1ccc(Nc2ncc3c(n2)N2CCN=C2N(c2c(F)cccc2Cl)C3=O)cc1 [Example 105]"
quantitative_readout = 40


# context switch: different compound, same Inh. (%) of Wee1 kinase enzyme activity
Enter measured Inh. (%) of Wee1 kinase enzyme activity, system Wee1 (h) (Homo sapiens), for the compound shown: Cc1cc(Nc2ncc3c(n2)N2CCN=C2N(c2c(Cl)cccc2Cl)C3=O)ccc1N1C[C@@H](C)N(C)[C@@H](C)C1 [Example 77]
11

====

# Target under test: UniProtKB P30291
# Assay name: Wee1 kinase (h) detection method, [γ-33P]-ATP filter assay
# Format: biochemical
# Condition context: C 0.01 μm compound
# Description: Determination of the inhibitory effect of 6-(2-chlorophenyl)-2-((4-(4-methylpiperazin-1-yl)phenyl)amino)-8,9-dihydroimidazo[1,2-a]pyrimido[5,4-e]pyrimidin-5(6H)-one and Analogs on the Enzyme Activity of Wee1 Kinase by Using the Wee1 Kinase (h) Detection Method Then the stock solution of all compounds under test with 50× concentration in 100% DMSO was added to make the final concentration of 10/1/0.1/0.01 μM, and then mixed the mixture well. […]
Measurement kind: Inh. (%) of Wee1 kinase enzyme activity
State just the number; it will be interpreted in %.

[[record]]
structure_notation = "Cc1cc(Nc2ncc3c(n2)N2CCN=C2N(c2c(F)cccc2Cl)C3=O)cc(Cl)c1N1CCN(C)CC1"
quantitative_readout = 18

[[record]]
structure_notation = "Cc1cc(Nc2ncc3c(n2)N2CCN=C2N(c2c(F)cccc2F)C3=O)cc(C)c1N1CCN(C)CC1"
quantitative_readout = 22


// fetch Inh. (%) of Wee1 kinase enzyme activity given entry `Cc1cc(Nc2ncc3c(n2)N2CCN=C2N(c2c(F)cccc2Cl)C3=O)ccc1N1C[C@@H](C)N(C)[C@@H](C)C1`
66

In one line, give reported Inh. (%) of Wee1 kinase enzyme activity of the entry `CC(=O)N1CCN(c2ccc(Nc3ncc4c(n3)N3CCN=C3N(c3c(F)cccc3Cl)C4=O)cc2)CC1` .
31

Entry `CN1CCN(c2ccc(Nc3ncc4c(n3)N3CCN=C3N(c3c(Cl)cccc3Br)C4=O)cc2Br)CC1` needs its Inh. (%) of Wee1 kinase enzyme activity filled in; supply it.
22

====

Here the recorded Inh. (%) of Wee1 kinase enzyme activity is given for each entry.
# Target under test: Wee1 (h) (Homo sapiens)
# Assay name: Wee1 kinase (h) detection method, [γ-33P]-ATP filter assay
# Assay type: biochemical
# Condition context: C 1 μm compound
Write the answer as a number in %, unit excluded.

Would you please look over these solved cases?
[[record]]
compound = "CN1CCc2ccc(Nc3ncc4c(n3)N3CCN=C3N(c3c(Cl)cccc3Cl)C4=O)cc2C1 [Example 12]"
target_under_test = "Wee1 (h) (Homo sapiens)"
measurement_kind = "Inh. (%) of Wee1 kinase enzyme activity"
quantitative_readout = 98

[[record]]
compound = "CN1CCN(c2ccc(Nc3ncc4c(n3)N3CCN=C3N(c3cccnc3)C4=O)cc2)CC1 [Example 98]"
target_under_test = "Wee1 (h) (Homo sapiens)"
measurement_kind = "Inh. (%) of Wee1 kinase enzyme activity"
quantitative_readout = 2

[[record]]
compound = "CC(C)N1CCN(c2ccc(Nc3ncc4c(n3)N3CCN=C3N(c3c(F)cccc3Cl)C4=O)cc2)CC1 [Example 6]"
target_under_test = "Wee1 (h) (Homo sapiens)"
measurement_kind = "Inh. (%) of Wee1 kinase enzyme activity"
quantitative_readout = 98


Please look at this compound and report its Inh. (%) of Wee1 kinase enzyme activity: Cc1cccc(Cl)c1N1C(=O)c2cnc(Nc3ccc(N4CCN(C)CC4)c(Cl)c3)nc2N2CCN=C21 [Example 171]
95

Respond only with Inh. (%) of Wee1 kinase enzyme activity recorded for C[C@@H]1CN(c2c(Cl)cc(Nc3ncc4c(n3)N3CCN=C3N(c3c(Cl)cccc3Cl)C4=O)cc2Cl)C[C@H](C)N1C [Example 136]
94

Tell me its Inh. (%) of Wee1 kinase enzyme activity given Cc1cc(Nc2ncc3c(n2)N2CCN=C2N(c2c(F)cccc2Cl)C3=O)cc(F)c1N1CCN(C)CC1 [Example 123] as the entry.
97

Quickly give me recorded Inh. (%) of Wee1 kinase enzyme activity for CN1CCN(c2ccc(Nc3ncc4c(n3)N3CCN=C3N(c3c(Cl)cccc3Br)C4=O)cc2Br)CC1 [Example 162]
98
